The reported measurements were obtained from the RNAGym collection of RNA variant scans (doi:10.7554/elife.80360).

Would you kindly list self-cleavage for each of these variants?
B1: HDV Ribozyme (parent)
chain: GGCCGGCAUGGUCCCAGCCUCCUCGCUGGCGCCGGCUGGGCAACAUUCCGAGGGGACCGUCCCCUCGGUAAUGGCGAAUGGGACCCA

Variants of: B1
Assay: self-cleavage, relative activity (ratio to wild type); higher = more cleavage; co-transcriptional
Answers are plain numbers.

Example variants with recorded self-cleavage:
Entry G1U C63A : reported self-cleavage = ?
0.391

Entry U72A G76C : reported self-cleavage = ?
0.65

Entry C41U A45C : reported self-cleavage = ?
0.569

Entry U9G A42C : reported self-cleavage = ?
0.453

Field: self-cleavage. Fill in for each record below.
1. A8C C14G
2. G5U C63G
3. C32U G55U
4. C61G G68A

[0.237, 0, 0.935, 1.02]

Field: self-cleavage. Fill in for each record below.
1. C62A G80C
2. C13A C66G
3. C24U G29C

1: 0.0594; 2: 0.378; 3: 0.138

Field: self-cleavage. Fill in for each record below.
1. U20G G38C
2. C15G C18U
3. G17A G82U
4. G35A G82C
5. A16U U60A
6. C15A A42G
7. G52A A70U
8. G17A C18G

0.0489
0.0852
0.346
0.266
0.587
0.104
0.858
0.095

Field: self-cleavage. Fill in for each record below.
1. A8U A78U
2. C4G A51C

1. 0.128
2. 0.458
